Recorded Mean % relative activity (carbenicillin = 100%), one value per entry.
Test system: Gram-negative (Gn-II), cephalothin-resistant, 6 strains
ASSAY PROCEDURE: Mean % relative activity to carbenicillin from geometric mean MIC
Type: cell-based
TEST CONDITIONS: Gram-negative (Gn-II), 6 strains; from geometric mean of MIC
VALUE KIND: Mean % relative activity (carbenicillin = 100%)

>>> observed("CCN1CCN(C(=O)NC(C(=O)N[C@@H]2C(=O)N3[C@@H]2SC(C)(C)[C@@H]3C(=O)O)c2ccc(O)c(O)c2)C(=O)C1=O (mixture of isomers)")
112
>>> observed("CCN1CCN(C(=O)N[C@@H](C(=O)N[C@@H]2C(=O)N3[C@@H]2SC(C)(C)[C@@H]3C(=O)O)c2ccc(O)c(O)c2)C(=O)C1=O")
178
>>> observed("CCN1CCN(C(=O)N[C@H](C(=O)N[C@@H]2C(=O)N3[C@@H]2SC(C)(C)[C@@H]3C(=O)O)c2ccc(O)c(O)c2)C(=O)C1=O")
6
>>> observed("CCN1CCN(C(=O)N[C@@H](C(=O)N[C@@H]2C(=O)N3[C@@H]2SC(C)(C)[C@@H]3C(=O)O)c2ccccc2)C(=O)C1=O [piperacillin, reference compound]")
224

---

ASSAY PROCEDURE: Blood Level (im, 20mg/kg)
Assay type: in vivo
TEST CONDITIONS: blood, im, 20 mg/kg
Recorded half-life, one value per entry.
VALUE KIND: half-life (min)

>>> observed("CCN1CCN(C(=O)NC(C(=O)N[C@@H]2C(=O)N3[C@@H]2SC(C)(C)[C@@H]3C(=O)O)c2ccc(O)c(O)c2)C(=O)C1=O (mixture of isomers)")
32
>>> observed("CCN1CCN(C(=O)N[C@H](C(=O)N[C@@H]2C(=O)N3[C@@H]2SC(C)(C)[C@@H]3C(=O)O)c2ccc(O)c(O)c2)C(=O)C1=O")
39
>>> observed("CCN1CCN(C(=O)N[C@@H](C(=O)N[C@@H]2C(=O)N3[C@@H]2SC(C)(C)[C@@H]3C(=O)O)c2ccccc2)C(=O)C1=O [piperacillin, reference compound]")
29
>>> observed("CCN1CCN(C(=O)N[C@@H](C(=O)N[C@@H]2C(=O)N3[C@@H]2SC(C)(C)[C@@H]3C(=O)O)c2ccc(O)c(O)c2)C(=O)C1=O")
28

---

System: P. aeruginosa
ASSAY PROCEDURE: MIC, serial two-fold agar dilution, Mueller-Hinton agar (third P. aeruginosa line, strain not given)
Assay type: cell-based
TEST CONDITIONS: Pseudomonas aeruginosa
VALUE KIND: MIC (mg/L)

>>> observed("CCN1CCN(C(=O)N[C@@H](C(=O)N[C@@H]2C(=O)N3[C@@H]2SC(C)(C)[C@@H]3C(=O)O)c2ccc(O)c(O)c2)C(=O)C1=O [BB-P 661]")
0.8
>>> observed("CCN1CCN(C(=O)NC(C(=O)N[C@@H]2C(=O)N3[C@@H]2SC(C)(C)[C@@H]3C(=O)O)c2ccc(O)c(O)c2)C(=O)C1=O (mixture of isomers) [BB-P 652]")
6.3
>>> observed("CCN1CCN(C(=O)N[C@@H](C(=O)N[C@@H]2C(=O)N3[C@@H]2SC(C)(C)[C@@H]3C(=O)O)c2ccccc2)C(=O)C1=O [piperacillin, reference compound]")
25
